experiment: soluble on expression in E. coli; label from the status in PepcDB or PDB records
Property name: soluble on expression in E. coli

Examples with answers:
MGHHHHHHSHMANSAGSMANSAGSPGSLFRFAVPPALGSNLTDNVMITVDIIPSGWNSADGKSDKTKSAPSRDPERLQKIKESLLLEDSEEEEGDLCRICQMAAASSSNLLIEPCKCTGSLQYVHQDCMKKWLQAKINSGSSLEAVTTCELCKEKLELNLEDFDIHELHRAHANEQAEYEFISSGLYLVVLLHLCEQSFSDMMGNTNEPSTRVRFINLARTLQAHMEDLETSEDDSEEDGDHNRTFDIA; soluble
MSLTRISELPPQIRQEIEQLDQYIQKQVQISHHLKADTIDHDELIDSIPRDVAYLLKSESATSQYLKQDLKKISSFKSLIDEDLLDTQTFSVLLQQLLTPGSKISSNDLDKFFQKKIHLYEKKLEDYCRILSDIETAVNGIDTDLFGAPNNPNSTAITADLGSSEAENLLQLKTGLAAIVSTVIEEFTLFMDIAERIAVLHQKTKTLASLSEGHHHHHH; soluble
MTENVEYIRVLLKSSQAEVQMLREQNEFRDDLLKMFKVKLEVNALNNLPVRRNLSVEISNLETKKLKTEIAFLKEELGREGKKLTIANTVHEQLKKDLEAEKRNSMFLSELLTFYQNGHQPQLPAEDQFVDFLQTETRSVKEALKEKEEEVKRLLVDMEGKTFQNLTEKGRMEEEMNDAKREAQILRNEMKSLQKNMTAKENELLGYLRDASETHTEMQKDYKIQILELQRRNRILERHLDNIQ; not soluble
MSVEEEKGLLARADEFLQAFKKGAEFTQELLRENERLRFRTLQLEADQKGEGVAAALAVENRKLAARVEELEREIAEIIGQIRQIEAENNDFAARYVEIEEENNNLANLYIASYQLHSTLDFSEVLQIITEIIINLIGAEEFAVMLVDEKTGSLDAVAAEGISLEELPRVRLGEGVIGIAAGTGENYFAEGPETYERDLLRPMVCIPLKIKEHVIGVIAIYKLLIQKKSFASVDYELFTLLAGHAATAIFSSRIYSDSERKLSTMQGFINLLTT; not soluble

Record summary for MCIAIPGKMTAIVDENTATIDMGGICRDVNMALMGGAEESMIGKHFLVHVGYAISEISEEESEETMRLLKIMAGLEEIDSFE : reported soluble on expression in E. coli = soluble

Record summary for MNRVYVGTVSAVTDIGVFVNLNKRLRGLIHRRNLGNNRFSEDEEILVQVSGIGLSGEIDLKPVKMDGYKVVEISKEVGRVEIAELENLEHHHHHH : reported soluble on expression in E. coli = not soluble

Record summary for MSEAQGQGKQSLVEMLKAMVQARASDIHLQAGAPPTVRIDGKLRPFGNRPLTPKEVEAIARALLTPEQLEELEYRKEMDFAYTIPGVARFRCNLLRQRGSFGLVMRVVSEVIPSFEALGLPREVMESLAAKERGLILVTGPTGSGKSTTLAALIDHINLHYAKNIITIEDPIEFLHKHKKSLVVQREVGLDTDSFYTGLKYALRQDPDVIMVGEMRDRETVEAALMAAQTGHLVLSTLHTLDAWRTINRIIDFFPLHEHRQVRVLLAESLLGILSQRLLPKADGQGRVLALEILIATPYVRELLKDEEKMPQIKEAMMEGSLYGMRTFDQHLVELYTEGLISLEDALSAATSPHEFRLLLTKATGQTY : reported soluble on expression in E. coli = soluble

Record summary for MSDDEIGDGARAFNQLIQALSLSIETETAVRTFTEMLVSELDVHQLTEQALALLLQHTGADGGAILIEVDGEIRVAASQGIGSAHTLANNDRVRSALRTERRHRVQLPEDLVVDGMLAQFRPKEVIIDPVRHKEVVLGAVVLASGQGFSAEDRNRLDVFERGLALALHNALLYDRLQTLAALDPLTGALEHHHHHH : reported soluble on expression in E. coli = soluble

Record summary for MNIQWFPGHMAKTRRILAENLKMVDVVVELLDARIPASSKNPEIDGIVKNKPKIVVLNKADLADEKISNEWSKWYNSQGYATIFIDSIKGTGIKQLKDQMRDIMKDRIERDRQRGRIFRPIRTMIVGIPNVGKSSLINKIAGKKSAVTGDRPGVTRNKQWINVNNEIQLMDTPGILWPKFEDKTVGINLAVTGAIKDEIIDTVELASILLEHLSKTYPENIKKRYKLESLQDKKGYELLEEAGKKRGCIISGGEVDLTRIAAIVLDEFRGGKIGRITLERPGDAVQELVAD : reported soluble on expression in E. coli = not soluble

Record summary for MSLKPVMIIQFSASEGPGHFGDFLAGEHIPFQVLRMDRSDPLPAEIRDCSGLAMMGGPMSANDDLPWMPTLLALIRDAVAQRVPVIGHCLGGQLLAKAMGGEVTDSPHAEIGWVRAWPQHVPQALEWLGTWDELELFEWHYQTFSIPPGAVHILRSEHCANQAYVLDDLHIGFQCHIEMQAHMVREWCSISPEELKGGAEADEGHHHHHH : reported soluble on expression in E. coli = not soluble

Source of measurements: the DeepSol protein solubility set
